Assay: Metabolic stability in human serum (LC/MS)
Type: in vitro ADME
Conditions: 37 °C
Procedure: The compounds were incubated with a human serum at 37 °C, and the amount of the residual test substance at various points in time was quantified by LC/MS with respect to an internal standard substance. […] Next, it was examined whether or not the half-lives of the compounds were affected by the reactivity of the Dha residue. The Dha residue may be conjugated with various serum thiols. In addition, the metabolic stability of all of the 14 types of candidate thiopeptides was examined. […]
*1 amine or outer side, *2 acyl side, *3 side chain or, on linkers, in order; H or OH if unused. Where a SMILES comes first, the peptide text is derived from it. Bridges are numbered along the chain shown (N, C = ends). The star is where a group is joined. X1 = C=C(N[*:2])c1nc(-c2nc(-c3nc(C(=O)OC)cs3)ccc2C(=O)[*:1])cs1; Cam = NC(=O)C*
MEASURED_METRIC: stability in human serum, in words

C=C1NC(=O)CNC(=O)[C@H](CCCNC(=N)N)NC(=O)[C@H](Cc2ccc(O)cc2)NC(=O)[C@H](CC(C)C)NC(=O)[C@H](CO)NC(=O)[C@H](CCCCN)NC(=O)[C@H](CC(N)=O)NC(=O)CNC(=O)[C@H](Cc2ccccc2)NC(=O)[C@H](Cc2c[nH]c3ccccc23)NC(=O)[C@H](Cc2c[nH]c3ccccc23)NC(=O)c2ccc(-c3nc(C(=O)OC)cs3)nc2-c2csc1n2 [TP14] (WWFGNKSLYRG; linker N-C via X1): short half-life
C=C1NC(=O)[C@H](CO)NC(=O)[C@H](CSCC(N)=O)NC(=O)CNC(=O)[C@H](Cc2ccc(O)cc2)NC(=O)[C@H](C)NC(=O)[C@H](CO)NC(=O)[C@H](CC(=O)O)NC(=O)CNC(=O)[C@H](CC(C)C)NC(=O)[C@H](Cc2c[nH]c3ccccc23)NC(=O)[C@H](Cc2c[nH]c3ccccc23)NC(=O)c2ccc(-c3nc(C(=O)OC)cs3)nc2-c2csc1n2 [TP4] (WWLGDSAYGC(Cam)S; linker N-C via X1): good stability
C=C1NC(=O)c2csc(n2)[C@H]([C@@H](C)O)NC(=O)[C@H](C)NC(=O)[C@H]([C@@H](C)CC)NC(=O)[C@H](CCCNC(=N)N)NC(=O)CNC(=O)[C@H](CCCNC(=N)N)NC(=O)[C@H]([C@@H](C)O)NC(=O)[C@H](CCCNC(=N)N)NC(=O)[C@H]([C@@H](C)CC)NC(=O)[C@H]([C@@H](C)O)NC(=O)[C@H](Cc2c[nH]c3ccccc23)NC(=O)c2ccc(-c3nc(C(=O)OC)cs3)nc2-c2csc1n2 [TP15]: short half-life
C=C1NC(=O)CNC(=O)[C@H](CC(N)=O)NC(=O)[C@H](CC(C)C)NC(=O)CNC(=O)[C@H](CCCCN)NC(=O)[C@H](C)NC(=O)[C@H]([C@@H](C)CC)NC(=O)[C@H](CO)NC(=O)[C@H](Cc2c[nH]c3ccccc23)NC(=O)[C@H](C)NC(=O)[C@H](Cc2c[nH]c3ccccc23)NC(=O)c2ccc(-c3nc(C(=O)OC)cs3)nc2-c2csc1n2 [TP8] (WAWSIAKGLNG; linker N-C via X1): good stability
